Item-by-item account of koff
Target: T1, monkey GFRα3 expressed with a C-terminal myc-myc-hexahistidine tag (monkey (Mf), UniProt O60609 32-374 (human entry), limits assumed)
T1 construct: also called MfGFRα3-mmh; MfGFRα3-mmH
T1 chain: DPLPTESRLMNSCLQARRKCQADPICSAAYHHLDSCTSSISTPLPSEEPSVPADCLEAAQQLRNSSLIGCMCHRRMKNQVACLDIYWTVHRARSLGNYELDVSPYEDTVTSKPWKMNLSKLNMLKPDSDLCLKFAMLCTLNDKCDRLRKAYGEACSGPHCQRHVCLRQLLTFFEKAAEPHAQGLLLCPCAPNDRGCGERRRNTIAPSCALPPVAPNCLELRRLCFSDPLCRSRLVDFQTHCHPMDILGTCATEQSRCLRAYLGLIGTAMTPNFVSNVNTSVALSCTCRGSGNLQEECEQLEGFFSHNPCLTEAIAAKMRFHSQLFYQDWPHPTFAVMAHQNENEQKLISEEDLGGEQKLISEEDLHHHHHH
Assay: SPR, Ab captured, 25C
The reply should contain only the number, in s⁻¹.

1) H4H2364S (antibody, human IgG4, V domains shown, human IgG4 Fc (H4H)) VH: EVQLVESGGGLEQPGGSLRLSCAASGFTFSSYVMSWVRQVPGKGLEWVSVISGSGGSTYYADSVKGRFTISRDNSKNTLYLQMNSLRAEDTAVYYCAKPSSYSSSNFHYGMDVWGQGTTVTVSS VL: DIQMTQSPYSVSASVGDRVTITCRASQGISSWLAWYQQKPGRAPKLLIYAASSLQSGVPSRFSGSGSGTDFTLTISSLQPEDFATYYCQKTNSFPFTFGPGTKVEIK    0.00013
2) H4H2295S (antibody, human IgG4, V domains shown, human IgG4 Fc (H4H)) VH: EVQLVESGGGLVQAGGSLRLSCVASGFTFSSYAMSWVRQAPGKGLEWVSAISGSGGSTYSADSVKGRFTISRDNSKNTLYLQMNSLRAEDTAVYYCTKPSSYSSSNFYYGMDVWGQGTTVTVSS VL: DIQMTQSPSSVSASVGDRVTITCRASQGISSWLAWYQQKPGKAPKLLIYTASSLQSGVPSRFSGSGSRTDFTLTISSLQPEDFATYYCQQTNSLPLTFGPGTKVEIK    0.000973

Then this binder:
Asked: Form field: reported koff of H1M2236N (antibody, V domains shown, chimeric, human variable and mouse constant domains (H1M)) VH: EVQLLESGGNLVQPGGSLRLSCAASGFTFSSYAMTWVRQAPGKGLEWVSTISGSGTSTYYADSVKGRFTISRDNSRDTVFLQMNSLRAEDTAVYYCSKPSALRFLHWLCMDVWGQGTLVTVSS VL: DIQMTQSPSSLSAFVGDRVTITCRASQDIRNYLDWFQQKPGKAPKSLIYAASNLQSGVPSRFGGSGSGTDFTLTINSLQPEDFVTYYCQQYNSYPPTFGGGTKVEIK
Given back: 0.000286
